- target: Menin (Homo sapiens) (UniProt O00255)
- Sequence (O00255 whole entry): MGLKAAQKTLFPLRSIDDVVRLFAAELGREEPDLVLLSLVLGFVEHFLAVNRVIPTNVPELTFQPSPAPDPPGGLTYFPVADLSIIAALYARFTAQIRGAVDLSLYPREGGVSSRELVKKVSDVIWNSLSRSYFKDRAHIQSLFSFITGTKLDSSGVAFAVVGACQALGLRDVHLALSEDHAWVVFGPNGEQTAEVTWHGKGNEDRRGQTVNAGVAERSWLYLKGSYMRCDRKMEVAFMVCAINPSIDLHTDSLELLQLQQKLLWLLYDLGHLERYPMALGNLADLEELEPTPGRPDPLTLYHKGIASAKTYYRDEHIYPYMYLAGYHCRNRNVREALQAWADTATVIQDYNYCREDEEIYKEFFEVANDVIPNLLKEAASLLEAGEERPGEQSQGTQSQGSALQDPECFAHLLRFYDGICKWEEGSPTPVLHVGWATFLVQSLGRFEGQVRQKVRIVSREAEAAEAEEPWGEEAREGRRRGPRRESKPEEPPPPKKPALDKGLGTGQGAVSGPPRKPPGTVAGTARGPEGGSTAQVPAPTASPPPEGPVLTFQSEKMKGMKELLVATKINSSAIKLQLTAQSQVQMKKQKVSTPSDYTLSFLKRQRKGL
- assay-protocol: Covalent binding affinity to human menin assessed as protein-compound complex formation at protein to compound ratio of 1:1.2 after 1 hr by LC-MS analysis relative to control

{"columns": ["smiles-data", "Activity (%)"],
 "data": [
  ["CCc1nccn1C[C@@](c1cccc(F)c1)(C1CCN(CC2CN(c3ccc(S(=O)(=O)C4CN(C(=O)/C=C/CN(C)C)C4)cc3)C2)CC1)[C@H]1CCC[C@@H]1NC(=O)OC", 100],
  ["COC(=O)N[C@H]1CCC[C@@H]1[C@](CN1CCC1)(c1cccc(F)c1)C1CCN(CC2CN(c3ccc(S(=O)(=O)C4CN(C(=O)/C=C/CN(C)C)C4)cc3)C2)CC1", 75],
  ["COC(=O)N[C@H]1CCC[C@@H]1[C@](CN1CCC1)(c1cccc(F)c1)C1CCN(CC2CN(c3ccc(S(=O)(=O)C4CN(C(=O)/C=C/CN5CC(F)(F)C5)C4)cc3)C2)CC1", 0],
  ["COC(=O)N[C@H]1CCC[C@@H]1[C@](CN1CCC1)(c1cccc(F)c1)C1CCN(CC2CN(c3ccc(S(=O)(=O)C4CN(C(=O)/C=C/CN5CCC(F)CC5)C4)cc3)C2)CC1", 20],
  ["COC(=O)N[C@H]1CCC[C@@H]1[C@](CN1CCC1)(c1cccc(F)c1)C1CCN(CC2CN(c3ccc(S(=O)(=O)C4CN(C(=O)/C=C/CN5CCC5)C4)cc3)C2)CC1", 75],
  ["COC(=O)N[C@H]1CCC[C@@H]1[C@](C#N)(c1cccc(F)c1)C1CCN(CC2CN(c3ccc(S(=O)(=O)C4CN(C(=O)/C=C/CN(C)C)C4)cc3)C2)CC1", 95]
]}

====

- target: Menin (Homo sapiens)
- assay-protocol: Covalent binding affinity to human menin assessed as protein-compound complex formation at protein to compound ratio of 1:1.2 after 1 hr by LC-MS analysis relative to control
Rule for this label: rule met means Activity is less than 20%; rule not met means Activity is at least 20%.

{"columns": ["smiles-data", "target", "label"],
 "data": [
  ["COC(=O)N[C@H]1CCC[C@@H]1[C@](CN1CCC1)(c1cccc(F)c1)C1CCN(CC2CN(c3ccc(S(=O)(=O)C4CN(C(=O)/C=C/CN5CCC(F)(F)CC5)C4)cc3)C2)CC1", "Menin (Homo sapiens)", "rule met"],
  ["COC(=O)N[C@H]1CCC[C@@H]1[C@](CN1CCC1)(c1cccc(F)c1)C1CCN(CC2CN(c3ccc(S(=O)(=O)C4CN(C(=O)/C=C/CN5CCCC5)C4)cc3)C2)CC1", "Menin (Homo sapiens)", "rule not met"],
  ["C=CC(=O)N1CC(S(=O)(=O)c2ccc(N3CC(CN4CCC([C@@](CN5CCC5)(c5cccc(F)c5)[C@H]5CCC[C@@H]5NC(=O)OC)CC4)C3)cc2)C1", "Menin (Homo sapiens)", "rule not met"],
  ["COC(=O)N[C@H]1CCC[C@@H]1[C@](CN1CCC1)(c1cccc(F)c1)C1CCN(CC2CN(c3ccc(S(=O)(=O)C4CN(C(=O)/C=C/CN5CCCCC5)C4)cc3)C2)CC1", "Menin (Homo sapiens)", "rule not met"]
]}

====

// reported Activity for each item listed
- target: Menin (Homo sapiens)
- assay-protocol: Covalent binding affinity to human menin assessed as protein-compound complex formation at protein to compound ratio of 1:1.2 measured after overnight incubation by LC-MS analysis relative to control
assay-metric: Activity (%)

{"columns": ["smiles-data", "target", "assay-metric", "value-observed"],
 "data": [
  ["COC(=O)N[C@H]1CCC[C@@H]1[C@](CN1CCC1)(c1cccc(F)c1)C1CCN(CC2CN(c3ccc(S(=O)(=O)C4CN(C(=O)/C=C/CN5CC(F)C5)C4)cc3)C2)CC1", "Menin (Homo sapiens)", "Activity", 75],
  ["C=CC(=O)N1CC(S(=O)(=O)c2ccc(N3CC(CN4CCC([C@@](CN5CCC5)(c5cccc(F)c5)[C@H]5CCC[C@@H]5NC(=O)OC)CC4)C3)cc2)C1", "Menin (Homo sapiens)", "Activity", 75],
  ["COC(=O)N[C@H]1CCC[C@@H]1[C@](CN1CCC1)(c1cccc(F)c1)C1CCN(CC2CN(c3ccc(S(=O)(=O)C4CN(C(=O)/C=C/CN5CCCCC5)C4)cc3)C2)CC1", "Menin (Homo sapiens)", "Activity", 100],
  ["COC(=O)N[C@H]1CCC[C@@H]1[C@](CN1CCC1)(c1cccc(F)c1)C1CCN(CC2CN(c3ccc(S(=O)(=O)C4CN(C(=O)/C=C/CN5CC(F)(F)C5)C4)cc3)C2)CC1", "Menin (Homo sapiens)", "Activity", 0],
  ["COC(=O)N[C@H]1CCC[C@@H]1[C@](CN1CCC1)(c1cccc(F)c1)C1CCN(CC2CN(c3ccc(S(=O)(=O)C4CN(C(=O)/C=C/CN5CCC(F)CC5)C4)cc3)C2)CC1", "Menin (Homo sapiens)", "Activity", 100],
  ["COC(=O)N[C@H]1CCC[C@@H]1[C@](CN1CCC1)(c1cccc(F)c1)C1CCN(CC2CN(c3ccc(S(=O)(=O)C4CN(C(=O)/C=C/CN5CCC5)C4)cc3)C2)CC1", "Menin (Homo sapiens)", "Activity", 100],
  ["COC(=O)N[C@H]1CCC[C@@H]1[C@](CN1CCC1)(c1cccc(F)c1)C1CCN(CC2CN(c3ccc(S(=O)(=O)C4CN(C(=O)/C=C/CN(C)C)C4)cc3)C2)CC1", "Menin (Homo sapiens)", "Activity", 100],
  ["COC(=O)N[C@H]1CCC[C@@H]1[C@](C#N)(c1cccc(F)c1)C1CCN(CC2CN(c3ccc(S(=O)(=O)C4CN(C(=O)/C=C/CN(C)C)C4)cc3)C2)CC1", "Menin (Homo sapiens)", "Activity", 100],
  ["COC(=O)N[C@H]1CCC[C@@H]1[C@](CN1CCC1)(c1cccc(F)c1)C1CCN(CC2CN(c3ccc(S(=O)(=O)C4CN(C(=O)/C=C/CN5CCCC5)C4)cc3)C2)CC1", "Menin (Homo sapiens)", "Activity", 100],
  ["CCc1nccn1C[C@@](c1cccc(F)c1)(C1CCN(CC2CN(c3ccc(S(=O)(=O)C4CN(C(=O)/C=C/CN(C)C)C4)cc3)C2)CC1)[C@H]1CCC[C@@H]1NC(=O)OC", "Menin (Homo sapiens)", "Activity", 100],
  ["COC(=O)N[C@H]1CCC[C@@H]1[C@](CN1CCC1)(c1cccc(F)c1)C1CCN(CC2CN(c3ccc(S(=O)(=O)C4CN(C(=O)/C=C/CN5CCC(F)(F)CC5)C4)cc3)C2)CC1", "Menin (Homo sapiens)", "Activity", 0]
]}
